Test system: Enterococcus faecium 800
Experiment: MIC by broth microdilution, EFcm 800
Format: cell-based
Settings: Enterococcus faecium, 800, read-out: MIC E FCM 800
MEASUREMENT TYPE: MIC

- MOLECULE: "CCCCCOc1ccc(CCNC(=O)Oc2cc(O)c3c(c2)[C@@H](C(=O)O)NC(=O)[C@H]2NC(=O)[C@H](NC(=O)[C@@H]4NC(=O)[C@H](CC(N)=O)NC(=O)[C@H](NC(=O)[C@@H](CC(C)C)NC)[C@H](O)c5ccc(c(Cl)c5)Oc5cc4cc(c5O[C@@H]4O[C@H](CO)[C@@H](O)[C@H](O)[C@H]4O[C@H]4C[C@](C)(N)[C@H](O)[C@H](C)O4)Oc4ccc(cc4Cl)[C@H]2O)c2ccc(O)c-3c2)cc1 (atropisomer, axis not shown)"
  MEASUREMENT TYPE: "MIC"
  VALUE MEASURED: "0.01 to 0.5 µg/mL"
- MOLECULE: "CCCCCCc1ccc(S(=O)(=O)NCCCCCNC(=O)Oc2cc(O)c3c(c2)[C@@H](C(=O)O)NC(=O)[C@H]2NC(=O)[C@H](NC(=O)[C@@H]4NC(=O)[C@H](CC(N)=O)NC(=O)[C@H](NC(=O)[C@@H](CC(C)C)NC)[C@H](O)c5ccc(c(Cl)c5)Oc5cc4cc(c5O[C@@H]4O[C@H](CO)[C@@H](O)[C@H](O)[C@H]4O[C@H]4C[C@](C)(N)[C@H](O)[C@H](C)O4)Oc4ccc(cc4Cl)[C@H]2O)c2ccc(O)c-3c2)cc1 (atropisomer, axis not shown)"
  MEASUREMENT TYPE: "MIC"
  VALUE MEASURED: "0.01 to 0.5 µg/mL"
- MOLECULE: "CCCCCOc1ccc(S(=O)(=O)NCCCCNC(=O)Oc2cc(O)c3c(c2)[C@@H](C(=O)NC2C4CC5CC(C4)CC2C5)NC(=O)[C@H]2NC(=O)[C@H](NC(=O)[C@@H]4NC(=O)[C@H](CC(N)=O)NC(=O)[C@H](NC(=O)[C@@H](CC(C)C)NC)[C@H](O)c5ccc(c(Cl)c5)Oc5cc4cc(c5O[C@@H]4O[C@H](CO)[C@@H](O)[C@H](O)[C@H]4O[C@H]4C[C@](C)(N)[C@H](O)[C@H](C)O4)Oc4ccc(cc4Cl)[C@H]2O)c2ccc(O)c-3c2)cc1 (some centres unmarked)"
  MEASUREMENT TYPE: "MIC"
  VALUE MEASURED: "0.01 to 0.5 µg/mL"
- MOLECULE: "CCCCCCCOc1ccc(S(=O)(=O)NCCCCCCNC(=O)Oc2cc(O)c3c(c2)[C@@H](C(=O)O)NC(=O)[C@H]2NC(=O)[C@H](NC(=O)[C@@H]4NC(=O)[C@H](CC(N)=O)NC(=O)[C@H](NC(=O)[C@@H](CC(C)C)NC)[C@H](O)c5ccc(c(Cl)c5)Oc5cc4cc(c5O[C@@H]4O[C@H](CO)[C@@H](O)[C@H](O)[C@H]4O[C@H]4C[C@](C)(N)[C@H](O)[C@H](C)O4)Oc4ccc(cc4Cl)[C@H]2O)c2ccc(O)c-3c2)cc1 (atropisomer, axis not shown)"
  MEASUREMENT TYPE: "MIC"
  VALUE MEASURED: "0.01 to 0.5 µg/mL"
- MOLECULE: "CCCOc1ccc(NC(=O)Oc2cc(O)c3c(c2)[C@@H](C(=O)O)NC(=O)[C@H]2NC(=O)[C@H](NC(=O)[C@@H]4NC(=O)[C@H](CC(N)=O)NC(=O)[C@H](NC(=O)[C@@H](CC(C)C)NC)[C@H](O)c5ccc(c(Cl)c5)Oc5cc4cc(c5O[C@@H]4O[C@H](CO)[C@@H](O)[C@H](O)[C@H]4O[C@H]4C[C@](C)(N)[C@H](O)[C@H](C)O4)Oc4ccc(cc4Cl)[C@H]2O)c2ccc(O)c-3c2)cc1 (atropisomer, axis not shown)"
  MEASUREMENT TYPE: "MIC"
  VALUE MEASURED: "0.5 to 1 µg/mL"

Data provenance is patent US20110015119A1.
